As shown below, each of these compounds has a reported solubility value.
measurement_description: Solubility of the dye compound
Assay type: physicochemical
condition_summary: compound obtained as a sodium salt; read-out: solubility

Completed entries (count: 3):
CCCc1c(N=Nc2cc(C)c(N=Nc3ccc(N=Nc4ccc(S(=O)(=O)O)cc4)cc3S(=O)(=O)O)cc2OCCCS(=O)(=O)O)c(O)n2c(nc3ccccc32)c1C#N.CS(=O)(=O)O | ≥ 100 mg/mL
Cc1cc(N=Nc2c(S(=O)(=O)O)cc3c(S(=O)(=O)O)c(N=Nc4cc(S(=O)(=O)O)c5cc(S(=O)(=O)O)c(N=Nc6ccc([N+](=O)[O-])cc6S(=O)(=O)O)c(O)c5c4N)ccc3c2O)c(OCCCS(=O)(=O)O)cc1N=Nc1cc(C)c(N=Nc2ccc(S(=O)(=O)O)c3cc(S(=O)(=O)O)cc(O)c23)cc1OCCCS(=O)(=O)O | ≥ 100 mg/mL
CS(=O)(=O)O.Cc1cc(N=Nc2c(-c3ccccc3)c(C#N)c3nc4ccccc4n3c2O)c(OCCCS(=O)(=O)O)cc1N=Nc1ccc(N=Nc2ccc(S(=O)(=O)O)cc2)cc1S(=O)(=O)O | ≥ 100 mg/mL

Per the record, CS(=O)(=O)O.Cc1cc(N=Nc2c(C)c(C(N)=O)c3nc4ccccc4n3c2O)c(OCCCS(=O)(=O)O)cc1N=Nc1cc(C)c(N=Nc2ccc(S(=O)(=O)O)cc2C(=O)O)cc1OCCCS(=O)(=O)O has solubility of ≥ 100 mg/mL

solubility for CS(=O)(=O)O.Cc1cc(N=Nc2c(C)c(C#N)c3nc4ccccc4n3c2O)c(OCCCS(=O)(=O)O)cc1N=Nc1cc(C)c(N=Nc2ccc(S(=O)(=O)O)cc2C(=O)O)cc1OCCCS(=O)(=O)O is ≥ 100 mg/mL

Notebook: CS(=O)(=O)O.Cc1cc(N=Nc2c(C)c(C#N)c3nc4ccccc4n3c2O)c(OCCCCS(=O)(=O)O)cc1N=Nc1ccc(N=Nc2ccc(S(=O)(=O)O)cc2)cc1S(=O)(=O)O , solubility read as ≥ 100 mg/mL
